Reported Ki, UniProt P28223.
Sequence (P28223 whole entry): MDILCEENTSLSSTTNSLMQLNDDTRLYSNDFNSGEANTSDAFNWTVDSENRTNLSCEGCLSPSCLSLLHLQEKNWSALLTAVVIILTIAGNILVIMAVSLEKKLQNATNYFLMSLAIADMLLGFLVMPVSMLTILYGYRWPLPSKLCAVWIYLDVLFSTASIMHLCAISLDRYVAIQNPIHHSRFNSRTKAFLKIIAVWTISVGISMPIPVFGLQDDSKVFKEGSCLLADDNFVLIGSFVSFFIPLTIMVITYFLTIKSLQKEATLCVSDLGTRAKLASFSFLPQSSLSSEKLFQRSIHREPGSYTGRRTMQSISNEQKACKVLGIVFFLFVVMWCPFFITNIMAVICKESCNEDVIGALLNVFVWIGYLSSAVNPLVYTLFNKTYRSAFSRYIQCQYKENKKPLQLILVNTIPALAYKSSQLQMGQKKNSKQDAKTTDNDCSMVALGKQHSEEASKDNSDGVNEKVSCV
Respond with the bare value in nM.

# example entries with known answers
CN(C)CCc1c[nH]c2ccccc12 [N,N-Dimethyltryptamine nicotinate]; 170
CN(C)CCc1c[nH]c2ccccc12.O=C(O)/C=C/C(=O)O [N,N-Dimethyltryptamine fumarate, reference compound]; 71

Then there is this compound:
Record summary for CN(C)CCc1c[nH]c2ccccc12 [N,N-Dimethyltryptamine pamoate] : reported Ki = 54

---

target: UniProtKB Q99720; experiment: biochemical; conditions: IC50, estimated, duplicate
Sequence (Q99720 whole entry): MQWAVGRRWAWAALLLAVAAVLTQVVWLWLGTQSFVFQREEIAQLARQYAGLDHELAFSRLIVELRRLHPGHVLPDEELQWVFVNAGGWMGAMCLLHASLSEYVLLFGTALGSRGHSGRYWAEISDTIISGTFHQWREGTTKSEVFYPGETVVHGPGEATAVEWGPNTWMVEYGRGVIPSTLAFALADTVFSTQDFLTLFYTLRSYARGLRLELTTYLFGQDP
Measured Metric: IC50
Include the unit right after the number.

CN(C)CCc1c[nH]c2ccccc12.O=C(O)/C=C/C(=O)O [N,N-Dimethyltryptamine fumarate, reference compound]; 10.2 µM

Record summary for CN(C)CCc1c[nH]c2ccccc12 [N,N-Dimethyltryptamine pamoate] : reported IC50 = 6.31 µM
